- assay.target: T1, hFc-hFasL (fusion protein of human Fc fragment and human FasL extracellular region) (human, UniProt P48023 134-281)
- T1 construct: the order here follows the name hFc-hFasL; also called hFc-FasL; hFc-hFasL antigen; not shown: human Fc fragment tag
- T1 sequence: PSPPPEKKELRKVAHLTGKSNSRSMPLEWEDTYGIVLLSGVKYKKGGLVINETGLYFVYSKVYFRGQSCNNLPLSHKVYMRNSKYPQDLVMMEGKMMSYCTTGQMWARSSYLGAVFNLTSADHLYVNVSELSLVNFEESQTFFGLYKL
- method.notes: ELISA, hFc-hFasL coated, antibody titrated, anti-human kappa-HRP (protocol of Example 3.2)
The reader will find reported EC50 values listed item by item below.
Numeric answer only, unit nM assumed.

INSERT INTO results (binder, units_label, recorded_value) VALUES
  ('humFL-M88-11 (antibody, human IgG4, V domains shown, Humanized FL-M88) VH: QVQLVQSGAEVKKPGASVKVSCKGSGYTFTDYTIHWVRQAPGQGLEWMGVISTYQGDASYNQKFKGRVTMTVDKSTSTVYMELSSLRSEDTAVYYCARFPDWDYAMDYWGQGTLVTVSS VL: EIVMTQSPATLSVSPGERATLSCKASQSVDYDGDSYMNWYQQKPGQAPRLLIYAASNLESGIPARFSGSGSGTEFTLTISSLQSEDFAVYYCQHSRELPYTFGQGTKLEIK', 'nM', 0.343);

// below: EC50 requested for another binder
Form: binder = humFL-M88-17 (antibody, human IgG4, V domains shown, Humanized FL-M88) VH: QVQLVQSGAEVKKPGASVKVSCKGSGYTFTDYTIHWVRQAPGQGLEWMGVISTYQGDASYNQKFKGRVTMTVDKSTSTVYMELSSLRSEDTAVYYCARFPDWDYAMDYWGQGTLVTVSS VL: EIVMTQSPATLSVSPGERATLSCKASQSVDYDGDSYMNWYQQKPGQPPRLLIYAASNLESGIPARFSGSGSGTEFTLTISSLQSEDFAVYYCQQSRELPYTFGQGTKLEIK ; EC50 = 0.329
